Hello, the source for this data is the NIST ThermoML archive (doi:10.1016/j.fluid.2015.06.016), in case you need it.

CONDITION DETAILS: 303.15 K; 101.33 kPa; Liquid; Vibrating tube method
ASSAY METRIC: mass density (kg/m3)

MOLECULE	UNIT OF MEASUREMENT	mass density
OCC(O)CO	kg/m3	1257.13

1. O=S1(=O)CCCC1
2. CCCCCCCCCC
Asked: Please state the entry with greater mass density among 1 and 2 . Label of pick, please.
Given back: 1
(1: 1265.75 kg/m3, 2: 722.439 kg/m3)
